What inhibition at 900 g/ha was measured for each of the following?
tested on: AEGCY (jointed goatgrass); experiment: Pre-plant incorporated (PPI) herbicidal activity, cool season; assay type: in vivo, Aegilops cylindrica; details: Aegilops cylindrica; weed, PPI application, 900 g/ha; read-out: Percent inhibition AEGCY
Dear colleague, please return just the value in %, with no unit written.

Briefly, inhibition at 900 g/ha measured for C=CCC(F)(F)S(=O)(=O)c1ncn(C(=O)N(CC)CC)n1 [Example 17] : 40

Briefly, inhibition at 900 g/ha measured for C=C(Br)CC(F)(F)S(=O)(=O)c1ncn(C(=O)N(CC)CC)n1 [Example 19] : 20

Briefly, inhibition at 900 g/ha measured for CCSC(F)(F)S(=O)(=O)c1ncn(C(=O)N(CC)CC)n1 [Example 8] : 20

Briefly, inhibition at 900 g/ha measured for C=C(C)CC(F)(F)S(=O)(=O)c1ncn(C(=O)N(CC)CC)n1 [Example 18] : 10

Briefly, inhibition at 900 g/ha measured for CCN(CC)C(=O)n1cnc(S(=O)(=O)C(F)(F)Br)n1 [Example 1] : 60

---

Tested on: LAMPU (purple deadnettle)
Experiment: Pre-emergence herbicidal activity, cool season
Format: in vivo, Lamium purpureum
Details: lowest tested rate with 80% or greater inhibition; rates 300, 100, 30, 10 g/ha; about 14 days
Excerpt: Tables 5 to 8 summarize results of tests conducted as described below to determine the pre-emergence herbicidal activity, in the form of a GR80 value, of illustrative compounds of this invention. […] Compounds of the invention were typically applied at rates of 300, 100, 30, and 10 g/ha. […] Approximately 14 days after planting and treating, the plants were observed and herbicidal efficacy recorded as percent inhibition by comparison with untreated plants. […]
property.label: Pre-emergence activity GR80, LAMPU (g/ha)
Dear colleague, please return just the value in g/ha, with no unit written.

Briefly, Pre-emergence activity GR80, LAMPU measured for CCSC(F)(F)S(=O)(=O)c1ncn(C(=S)N(CC)CC)n1 [Example 58] : 300

Briefly, Pre-emergence activity GR80, LAMPU measured for CN(C(=O)n1cnc(S(=O)(=O)C(F)(F)C(F)(F)Br)n1)C1CCCCC1 [Example 79] : 100

Briefly, Pre-emergence activity GR80, LAMPU measured for CN(C(=O)n1cnc(S(=O)(=O)C(F)(F)Cl)n1)C1CCCCC1 [Example 91] : 30

Briefly, Pre-emergence activity GR80, LAMPU measured for CCN(CC)C(=O)n1cnc(S(=O)(=O)C(F)(F)SCCOC(C)=O)n1 [Example 21] : 300

Briefly, Pre-emergence activity GR80, LAMPU measured for COCCN(C)C(=O)n1cnc(S(=O)(=O)C(F)(F)C(F)(F)Br)n1 [Example 76] : 100

---

Test system: ALOMY (blackgrass)
Test: Pre-plant incorporated (PPI) herbicidal activity, cool season
Type: in vivo, Alopecurus myosuroides
Settings: weed, PPI application, 100 g/ha
Description: In another set of tests, the pre-plant incorporated (PPI) activity of compounds of this invention was evaluated on the same species as for the pre-emergence tests described above. […] A pre-prepared topsoil mixture (described above) was placed in a pot and compacted to a depth of 1.0 to 1.25 cm from the top of the pot. […] A sufficient quantity of soil to cover the seeds and level fill the pot was weighed into an open container. […]
What Percent inhibition ALOMY was measured for each of the following?
Dear colleague, please return just the value in %, with no unit written.

Briefly, Percent inhibition ALOMY measured for CCN(CC)C(=O)n1cnc(S(=O)(=O)C(F)(F)F)n1 [Example 2] : 90

Briefly, Percent inhibition ALOMY measured for CCN(CC)C(=O)n1cnc(S(=O)(=O)C(F)(F)C(F)(F)Br)n1 [Example 4] : 95

Briefly, Percent inhibition ALOMY measured for CCN(CC)C(=O)n1cnc(S(=O)(=O)C(F)(F)SC)n1 [Example 9] : 95

Briefly, Percent inhibition ALOMY measured for CCN(CC)C(=O)n1cnc(S(=O)(=O)C(F)(F)SCc2ccccc2)n1 [Example 10] : 100

Briefly, Percent inhibition ALOMY measured for CCN(CC)C(=O)n1cnc(S(=O)(=O)C(F)(F)Cl)n1 [Example 3] : 90

Briefly, Percent inhibition ALOMY measured for CCN(CC)C(=O)n1cnc(S(=O)(=O)C(F)(F)SCCOC)n1 [Example 13] : 99

Briefly, Percent inhibition ALOMY measured for C=C(CC(F)(F)S(=O)(=O)c1ncn(C(=O)N(CC)CC)n1)C[Si](C)(C)C [Example 20] : 20

Briefly, Percent inhibition ALOMY measured for CCN(CC)C(=O)n1cnc(S(=O)(=O)C(F)(F)SCC(=O)OC)n1 [Example 11] : 20

Briefly, Percent inhibition ALOMY measured for CCN(CC)C(=O)n1cnc(S(=O)(=O)C(F)(F)C(F)F)n1 [Example 16] : 100

---

What Percent inhibition POLCO was measured for each of the following?
system: POLCO (wild buckwheat); assay: Pre-plant incorporated (PPI) herbicidal activity, cool season; format: in vivo, Polygonum convolvulus; conditions: weed, PPI application, 300 g/ha
Dear colleague, please return just the value in %, with no unit written.

Briefly, Percent inhibition POLCO measured for CCN(CC)C(=O)n1cnc(S(=O)(=O)C(F)(F)F)n1 [Example 2] : 65

Briefly, Percent inhibition POLCO measured for CCN(CC)C(=O)n1cnc(S(=O)(=O)C(F)(F)Cl)n1 [Example 3] : 90

Briefly, Percent inhibition POLCO measured for CCN(CC)C(=O)n1cnc(S(=O)(=O)C(F)(F)SCCOC)n1 [Example 13] : 80

Briefly, Percent inhibition POLCO measured for CCN(CC)C(=O)n1cnc(S(=O)(=O)C(F)(F)SC)n1 [Example 9] : 95

Briefly, Percent inhibition POLCO measured for CCN(CC)C(=O)n1cnc(S(=O)(=O)C(F)(F)SCC(=O)OC)n1 [Example 11] : 0

Briefly, Percent inhibition POLCO measured for CCN(CC)C(=O)n1cnc(S(=O)(=O)C(F)(F)SCc2ccccc2)n1 [Example 10] : 80

Briefly, Percent inhibition POLCO measured for CCN(CC)C(=O)n1cnc(S(=O)(=O)C(F)(F)C(F)F)n1 [Example 16] : 0

Briefly, Percent inhibition POLCO measured for CCN(CC)C(=O)n1cnc(S(=O)(=O)C(F)(F)C(F)(F)Br)n1 [Example 4] : 90

---

tested on: BRAPP (broadleaf signalgrass); assay: Pre-plant incorporated (PPI) herbicidal activity, warm season; type: in vivo, Brachiaria platyphylla; settings: PPI application, 30 g/ha
property.label: Percent inhibition BRAPP (%)
Dear colleague, please return just the value in %, with no unit written.

Briefly, Percent inhibition BRAPP measured for `CCN(CC)C(=O)n1cnc(S(=O)(=O)C(F)(F)SCC(=O)OC)n1` : 0

Briefly, Percent inhibition BRAPP measured for `CCN(CC)C(=O)n1cnc(S(=O)(=O)C(F)(F)SCCOC)n1` : 80

Briefly, Percent inhibition BRAPP measured for `CCN(CC)C(=O)n1cnc(S(=O)(=O)C(F)(F)C(F)F)n1` : 60

Briefly, Percent inhibition BRAPP measured for `CCN(CC)C(=O)n1cnc(S(=O)(=O)C(F)(F)SC)n1` : 70

Briefly, Percent inhibition BRAPP measured for `CCN(CC)C(=O)n1cnc(S(=O)(=O)C(F)(F)Cl)n1` : 30

Briefly, Percent inhibition BRAPP measured for `CCN(CC)C(=O)n1cnc(S(=O)(=O)C(F)(F)SCc2ccccc2)n1` : 20

Briefly, Percent inhibition BRAPP measured for `CCN(CC)C(=O)n1cnc(S(=O)(=O)C(F)(F)F)n1` : 80

Briefly, Percent inhibition BRAPP measured for `C=C(CC(F)(F)S(=O)(=O)c1ncn(C(=O)N(CC)CC)n1)C[Si](C)(C)C` : 0

Briefly, Percent inhibition BRAPP measured for `CCN(CC)C(=O)n1cnc(S(=O)(=O)C(F)(F)C(F)(F)Br)n1` : 0

---

tested on: POLCO (wild buckwheat); experiment: Pre-plant incorporated (PPI) herbicidal activity, cool season; assay type: in vivo, Polygonum convolvulus; conditions: pre-plant incorporated; lowest tested rate with 80% or greater inhibition; about 14 days
property.label: PPI activity GR80, POLCO (g/ha)
Dear colleague, please return just the value in g/ha, with no unit written.

Briefly, PPI activity GR80, POLCO measured for CCN(CC)C(=O)n1cnc(S(=O)(=O)C(F)F)n1 [Example 15] : 300

Briefly, PPI activity GR80, POLCO measured for C=C(C)CC(F)(F)S(=O)(=O)c1ncn(C(=O)N(CC)CC)n1 [Example 18] : 100

Briefly, PPI activity GR80, POLCO measured for CCN(CC)C(=O)n1cnc(S(=O)(=O)C(F)(F)C(=O)c2ccccc2)n1 [Example 6] : 300

Briefly, PPI activity GR80, POLCO measured for C=CCC(F)(F)S(=O)(=O)c1ncn(C(=O)N(CC)CC)n1 [Example 17] : 100

Briefly, PPI activity GR80, POLCO measured for CCN(CC)C(=O)n1cnc(S(=O)(=O)C(F)(F)C(F)F)n1 [Example 16] : 100

Briefly, PPI activity GR80, POLCO measured for CCSC(F)(F)S(=O)(=O)c1ncn(C(=O)N(CC)CC)n1 [Example 8] : 300
